target: OmpG (Escherichia coli, UniProt P76045, D245C); experiment: biochemical; type: binding, E. coli; conditions: read-out: Kd (apparent dissociation constant); midpoint of dose-dependent dissociation phase; 200 mM NaCl, 50 mM HEPES, pH 7.4, 24°C
Sequence (P76045 22-301 D245C): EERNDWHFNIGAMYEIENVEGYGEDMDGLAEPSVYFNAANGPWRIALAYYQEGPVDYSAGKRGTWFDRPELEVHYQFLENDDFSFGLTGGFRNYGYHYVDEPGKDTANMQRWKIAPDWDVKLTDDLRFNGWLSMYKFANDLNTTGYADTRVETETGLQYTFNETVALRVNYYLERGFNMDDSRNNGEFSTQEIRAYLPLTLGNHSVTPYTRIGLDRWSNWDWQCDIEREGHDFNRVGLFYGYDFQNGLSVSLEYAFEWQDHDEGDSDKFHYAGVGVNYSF

[
  {
    "MOLECULE": "OC[C@H]1O[C@H](O[C@H]2[C@H](O)[C@@H](O)[C@H](OCCCCC3CCCCC3)O[C@@H]2CO)[C@H](O)[C@@H](O)[C@@H]1O [CYMAL-4, 4-cyclohexyl-1-Butyl-β-D-maltoside]",
    "UNIT ABBREV": "mM",
    "MODIFIER SIGN": "=",
    "Kd": 4.6
  },
  {
    "MOLECULE": "CCCCCCCCO[C@@H]1O[C@H](CO)[C@@H](O)[C@H](O)[C@H]1O [OG, n-octyl-β-D-glucoside]",
    "UNIT ABBREV": "mM",
    "MODIFIER SIGN": "=",
    "Kd": 11
  },
  {
    "MOLECULE": "C[C@H](CCC(=O)NCCC[N+](C)(C)CCCS(=O)(=O)[O-])[C@H]1CC[C@H]2[C@@H]3[C@H](O)C[C@@H]4C[C@H](O)CC[C@]4(C)[C@H]3C[C@H](O)[C@]12C [CHAPS]",
    "UNIT ABBREV": "mM",
    "MODIFIER SIGN": "<",
    "Kd": 0.6
  }
]
